Target: T1, SWSAP1 D96A (Walker B);hSWS1 (Homo sapiens;Homo sapiens, UniProt Q6NVH7;Q19AV6 22-250;1-140, D117A|)
T1 sequence 1: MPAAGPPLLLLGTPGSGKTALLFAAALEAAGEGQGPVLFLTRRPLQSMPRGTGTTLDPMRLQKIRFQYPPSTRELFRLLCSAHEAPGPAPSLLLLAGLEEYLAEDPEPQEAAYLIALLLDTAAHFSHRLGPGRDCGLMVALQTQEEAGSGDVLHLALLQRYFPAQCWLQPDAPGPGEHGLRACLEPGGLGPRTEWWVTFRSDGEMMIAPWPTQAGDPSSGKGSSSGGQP
T1 sequence 2: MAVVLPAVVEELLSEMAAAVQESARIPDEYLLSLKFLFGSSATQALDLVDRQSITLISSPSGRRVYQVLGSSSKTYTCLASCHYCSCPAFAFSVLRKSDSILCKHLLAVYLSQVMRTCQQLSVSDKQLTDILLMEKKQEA
Experiment: fluorescence polarization; 2 mM ADP; FPA: 5 nM 6-FAM DNA, 37 C, 2 mM nucleotide where stated (buffer not given in material); EMSA: 0.05 uM 6-FAM DNA, 5%/15% native PAGE; RAD51 filaments: 2 mM ATP
Conditions: protein: recombinant;recombinant; tags: N-terminal 6xHis-TEV, cleaved;none; copies: 1;1; label: 3' 6-FAM
Observable: Kd (µM)

INSERT INTO results (binder, assay_result) VALUES
  ('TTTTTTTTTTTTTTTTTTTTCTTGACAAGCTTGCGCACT (ssDNA) [ss39]', 3.9);
